Test system: Fibroblast
Test: Multiplex assay against human fibroblast
Type: toxicity, cell-based
Settings: 48 h, 10 µM, compound concentration 10 uM, replicate 1
Rule: Population Hoechst High Intensity Objects (%) below 30% gives 1.0. Equal to or above 30% gives 0.0.

Example results:
- Cc1ccc(C(=O)Nc2cccc(C(F)(F)F)c2)cc1Nc1nc(-c2cccnc2)nc2c1cnn2C: 1.0
- CCn1c(=O)c(-c2ccc(-c3cncs3)cc2Cl)cc2cnc(Nc3ccc(N4CCN(C)CC4)cc3)nc21: 0.0
- CCCS(=O)(=O)c1nc(NC2CC2)cc(-c2ccc3c(ccn3C3CC(C)(C)NC(C)(C)C3)c2)n1: 0.0
- CN1C2CCC1CC(OC(c1ccc(F)cc1)c1ccc(F)cc1)C2.Cl (stereo unspecified): 1.0
- CCN1CCN(Cc2ccc(Nc3ncc(F)c(-c4cc(F)c5nc(C)n(C(C)C)c5c4)n3)nc2)CC1.CS(=O)(=O)O: 0.0

Lookup: Please determine if CCOc1cc(C(=O)N2CCC(N3CCN(C)CC3)CC2)ccc1Nc1ncc2c(n1)N(C1CCCC1)c1ccccc1C(=O)N2C is below 30% in terms of Population Hoechst High Intensity Objects (%).
Found: 1.0

Lookup: Does the reported Population Hoechst High Intensity Objects (%) of CN1CCN(C(=O)C(C)(C)c2ccc(C(=O)Nc3cn4cc(-c5ccncc5)ccc4n3)cc2)CC1 stay below 30%?
Found: 1.0

Lookup: Lab note: Population Hoechst High Intensity Objects (%) threshold 30%. Does this compound come in strictly under it? COCC(=O)NC/C=C/c1ccc2ncnc(Nc3ccc(Oc4ccc(C)nc4)c(C)c3)c2c1
Found: 1.0

Lookup: Does COc1cc(N2CCN(C)CC2)ccc1Nc1ncc2c(n1)N(C)c1ccccc1C(=O)N2C have Population Hoechst High Intensity Objects (%) strictly under 30%?
Found: 1.0

Lookup: Determine if CCCn1c(=O)c2[nH]c(-c3cnn(Cc4cccc(C(F)(F)F)c4)c3)nc2n(CC)c1=O shows Population Hoechst High Intensity Objects (%) strictly lower than 30%.
Found: 0.0

====

Test system: U2OS
Test: Multiplex assay against U2OS
Type: toxicity, cell-based
Conditions: human, 12 h, 1 µM, compound concentration 1 uM, replicate 2
Provide the reported Population Apoptotic (%) of each item.
Please don't drop the unit; write it after the number.

Look over these answered cases.
- CCc1cccc(CC)c1NC(=O)c1nn(C)c2c1CCc1cnc(Nc3ccc(C(=O)NC4CCN(C)CC4)cc3OC(F)(F)F)nc1-2: 40%
- O=C1NC(=O)C(c2cnc3ccccn23)=C1c1cn2c3c(cc(F)cc13)CN(C(=O)N1CCCCC1)CC2 [LY-2090314]: 80%

Lookup: Requested read-out: Population Apoptotic (%). Entry: CCN1CCN(c2ccc(Nc3cc(N(C)C(=O)Nc4c(Cl)c(OC)cc(OC)c4Cl)ncn3)cc2)CC1 [INFIGRATINIB]
Found: 40%

====

System: HEK-293T
Experiment: Multiplex assay against HEK293T
Assay type: toxicity, cell-based
Settings: human, 12 h, 1 µM, compound concentration 1 uM, replicate 1
Assignment: determine reported Population Fragmented Nuclei (%) for the given compounds.
Answers are plain numbers, in %.

Examples with answers:
• Cc1cn(-c2cc(NC(=O)c3ccc(C)c(Nc4nccc(-c5cccnc5)n4)c3)cc(C(F)(F)F)c2)cn1 = 10
• COc1ccc(-c2ccc3c(N4CCOCC4)nc(N4C[C@@H](C)O[C@@H](C)C4)nc3n2)cc1CO = 21
• CCc1cccc(CC)c1NC(=O)c1nn(C)c2c1CCc1cnc(Nc3ccc(C(=O)NC4CCN(C)CC4)cc3OC(F)(F)F)nc1-2 = 8

Give Population Fragmented Nuclei (%) for each of the items listed below.
1. CCOC(=O)c1c(C)[nH]c2ccc3c(c12)CN1CCc2cc(OC)ccc2C1O3 (stereo unspecified)
2. C=C1/C(=C\C=C2/CCC[C@]3(C)[C@@H]([C@H](C)/C=C/[C@H](C)C(C)C)CC[C@@H]23)C[C@@H](O)C[C@@H]1O
3. CCCS(=O)(=O)c1nc(NC2CC2)cc(-c2ccc3c(ccn3C3CC(C)(C)NC(C)(C)C3)c2)n1
4. Cl.O=c1c2cccn2c2ccccc2n1CCCN1CCC(c2ccc(Cl)cc2)CC1
5. CN[C@@H]1C[C@H]2O[C@@](C)([C@@H]1OC)n1c3ccccc3c3c4c(c5c6ccccc6n2c5c31)C(=O)NC4

Found:
[14, 17, 8, 7, 37]

Would you mind giving Population Fragmented Nuclei (%) for every compound in the list below?
1. O=C(Nc1ccc(-c2ccnc(Nc3ccc(N4CCOCC4)cc3)n2)cc1)[C@@H]1CCCN1
2. CCN1CCN(Cc2ccc(Nc3ncc(F)c(-c4cc(F)c5nc(C)n(C(C)C)c5c4)n3)nc2)CC1.CS(=O)(=O)O

Found:
1: 9; 2: 17

Please supply Population Fragmented Nuclei (%) for each of the following items, keeping them in order.
1. CNC(=O)c1ccc(Nc2nc(OC3CCCC3)c3c(-c4ccc5nc(C)oc5c4)c[nH]c3n2)c(OC)c1
2. S=C(NCCCc1c[nH]cn1)NCCCN(Cc1ccc(Cl)c(Cl)c1)c1ccc(Br)cn1
3. CCOc1cc2ncc(C#N)c(Nc3ccc(OCc4ccccn4)c(Cl)c3)c2cc1NC(=O)/C=C/CN(C)C
4. CCCn1c(=O)c2[nH]c(-c3cnn(Cc4cccc(C(F)(F)F)c4)c3)nc2n(CC)c1=O
5. Cl.Oc1ccc2c3c1O[C@H]1c4[nH]c5c(c4C[C@@]4(O)[C@@H](C2)N(CC2CC2)CC[C@]314)C[C@@]1(O)[C@H]2Cc3ccc(O)c4c3[C@@]1(CCN2CC1CC1)[C@H]5O4
6. NC(=O)c1cccc(-c2cc(Nc3ccc(OC(F)(F)F)cc3)ncn2)c1

Found:
20
8
20
14
8
12

Each recorded value in this set is attributed to ChEMBL document CHEMBL4689842.
